- MEASURED_TARGET: T1, mouse Rbpj (53-474) K195E (mouse, UniProt P31266 53-474, K195E)
- T1 construct: also called Rbpj K195E; K195E (analogous to human RBPJ K169E); source: E. coli BL21 Tuner, purified (ammonium sulfate, glutathione resin, PreScission cut, SP ion exchange)
- T1 sequence (P31266 53-474 K195E): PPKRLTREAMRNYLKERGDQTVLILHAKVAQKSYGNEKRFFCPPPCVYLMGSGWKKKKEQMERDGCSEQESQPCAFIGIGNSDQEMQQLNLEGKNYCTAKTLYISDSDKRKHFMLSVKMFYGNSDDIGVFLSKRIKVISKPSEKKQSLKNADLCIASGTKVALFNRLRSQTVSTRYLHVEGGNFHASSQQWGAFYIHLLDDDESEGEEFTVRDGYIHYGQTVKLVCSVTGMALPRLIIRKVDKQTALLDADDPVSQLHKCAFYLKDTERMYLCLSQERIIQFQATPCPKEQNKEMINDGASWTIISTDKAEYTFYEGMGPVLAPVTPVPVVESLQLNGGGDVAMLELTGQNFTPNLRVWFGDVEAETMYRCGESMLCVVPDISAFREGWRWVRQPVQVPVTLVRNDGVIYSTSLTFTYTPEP
- EXPERIMENT_NOTES: ITC; cofactor (RAM peptide, Hairless or SHARP) in the syringe, Su(H) or Rbpj in the cell; 50 mM sodium phosphate, 150 mM sodium chloride; 20 injections, triplicate, one site model; 25°C by the legend, 20°C by the methods
- CONDITION_SUMMARY: both partners purified
OBSERVABLE: Kd (nM)
All answers are understood in nM, so give the number only.

Fill in reported Kd for this entry: SHARP residues 2776-2833 (domain or fragment, human, UniProt Q96T58 2776-2833, looked up, called mouse SHARP in the results and the legend; also called mouse SHARP; mouse co-repressor SHARP; source: recombinant from pSMT3, purified as previously described) RASANENSRFHPGSMPVIDDRPADAGSGAGLRVNTSEGVVLLSYSGQKTEGPQRISAK
21
